Source: the RNAGym collection of RNA variant scans (doi:10.7554/elife.90254)

B1: OR4K15 (parent)
chain: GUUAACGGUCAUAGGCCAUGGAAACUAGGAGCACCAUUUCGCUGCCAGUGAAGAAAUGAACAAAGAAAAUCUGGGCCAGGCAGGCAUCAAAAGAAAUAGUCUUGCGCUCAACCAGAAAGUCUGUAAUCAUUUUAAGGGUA

- Variants of: B1
- assay_notes: self-cleavage, relative activity (ratio to wild type); higher = more cleavage; in vitro, sequencing; the parent is a self-cleaving ribozyme
value_type: self-cleavage

Entry under test: GUUAACGGUCAUAGGCCAUGGAAACUAGGAGCACCAUUUCGCUGCCAGUGAAGAUAUGAACAAAGAAAAUCUGGGCCAGGCAGGCAUCUAAAGAAAUAGUCUUGCGCUCAACCAGAAAGUCUGUAAUCAUUUUAAGGGUA [A55U A89U] . Its self-cleavage was 0.56

Looking up GUUAACGGUCAUAGGCCAUGGAAACUAGGAGCACCAUUUCGCUGCCAGUGAAGAAAUGGACAGAGAAAAUCUGGGCCAGGCAGGCAUCAAAAGAAAUAGUCUUGCGCUCAACCAGAAAGUCUGUAAUCAUUUUAAGGGUA [A59G A63G] , I found its self-cleavage recorded as 1.4

Reported self-cleavage for GUUAACGGUCAUAGGCCAUGGAAACUAGGAGCACCAUUUCGCAGCCAGUGAAGAAAUGAACAAAGAAGAUCUGGGCCAGGCAGGCAUCAAAAGAAAUAGUCUUGCGCUCAACCAGAAAGUCUGUAAUCAUUUUAAGGGUA [U43A A68G] was 1.25

Sample GUUAACGGUCAUAGGCCAUGGAAACUAGGAGCACCAUUUCGCUGCCCGUGAAGAAAUGAACAAAGAAAAUCUGAGCCAGGCAGGCAUCAAAAGAAAUAGUCUUGCGCUCAACCAGAAAGUCUGUAAUCAUUUUAAGGGUA [A47C G74A] ; self-cleavage observed: 0.17

Value of self-cleavage reported for the variant GUUAUCGGUCAUAGGCCAUGGAAACUAGGAGCACCAUUUCGCUGCCAGUGAAGAAAUGAACAAAGAAAAUCUGGGCCAGGCAGGCAUCAAAAGAAAUAGUCUUGCGCCCAACCAGAAAGUCUGUAAUCAUUUUAAGGGUA [A5U U108C] is 0.04

Entry GUUAACGGUCAUAGGCCAUGGAAACUAGGAGCACCAUUUCGCUGCCAGUGAAGAAAUGAACAAAGAAAAUCUGGGCCAGGCUGGCACCAAAAGAAAUAGUCUUGCGCUCAACCAGAAAGUCUGUAAUCAUUUUAAGGGUA [A82U U87C] — recorded self-cleavage = 0.22

// field: self-cleavage; key: GUUAACGGUCAUAGGCCAUGGAUACUAGGAGCACCAUUUCGCUGCCAGUGAAGAAAUGAACAAAGAAAAUCUGGGCCAGGCAGGCAUCAAAAGAAAUAGUCUUGCGCUCAACCAGAAAGUCUGUAAUCUUUUUAAGGGUA [A23U A129U] ; value = 0.79

Recorded result, GUUAACGGUCAUAGGCCAUGGAAACUAGGAGCACCAUUUCCCUGCCAGUGAAGAAAUGAACAAAGAAAAUCUGGGCCAGGCAGGCCUCAAAAGAAAUAGUCUUGCGCUCAACCAGAAAGUCUGUAAUCAUUUUAAGGGUA [G41C A86C] , self-cleavage: 0.81

self-cleavage for GUUAUCGGUCAUAGGCCAUGGAAACUAGGAGCACCAUUUCGCUGCCAGUGAAGAAAUGAACAAAGAAAAUCUGGGCCAGGCAGGCAUCAAAAGAAAUAGUCUUGCGCUCAACCAGAAAGUCUGUAUUCAUUUUAAGGGUA [A5U A126U] is 0

self-cleavage measured on GUUAACGGUCAUAGGCCAUGGAAACUAGGAGCACCAUUUCGCUGCCAGUGAAGAAAUGAACAAAGAAAAUCUGGGUCAGGCAGGCAUCAAAAGAAAUAGUCUUGCGCUCAACCAGAAAGUCUGUAAUCAUUUUAAGGGUA [C76U] = 0.05

The measured self-cleavage associated with GUUAACGGUCAUAGGCCACGGAAACUAGGAGCACCAUUUCGCUGCCAGUGAAGAAAUGAACAAAGAAAAUCUGGGCCAGGCAGGCAUCAGAAGAAAUAGUCUUGCGCUCAACCAGAAAGUCUGUAAUCAUUUUAAGGGUA [U19C A90G] reads 1.39

Briefly, self-cleavage measured for GUUAACGGUCAUAGGCCAUGGAAACUAGGAGCACCAUUUCGCUGCCAGUGAGGAAAUGAACAAAGAAAAUCUGGGCCAGGCAGGCAUCAAAAGAAGUAGUCUUGCGCUCAACCAGAAAGUCUGUAAUCAUUUUAAGGGUA [A52G A96G] : 1.64

Entry GUCAACGGUCAUAGGCCAUGGAAACUAGGAGCACCAUUUCGCUGCCAGUGAAGAAAUGAACAAAGAAAAUAUGGGCCAGGCAGGCAUCAAAAGAAAUAGUCUUGCGCUCAACCAGAAAGUCUGUAAUCAUUUUAAGGGUA [U3C C71A] ; self-cleavage = 0.16

get_value(item= GUUAACGGUCAUAGGCCAUGGAAACUAGGAGCACCAUUUCGCUGCCAGUGAAGAAAUGAACAAAGAAAUUCCGGGCCAGGCAGGCAUCAAAAGAAAUAGUCUUGCGCUCAACCAGAAAGUCUGUAAUCAUUUUAAGGGUA [A69U U72C] , readout=self-cleavage) returns 0.36

Documented self-cleavage of GUUAACGGUCAUAGGCCAUGGAAACUAGGAGCACCAUUUCGCUGCCAGUGAAGUAAUGAACAAAGAAAGUCUGGGCCAGGCAGGCAUCAAAAGAAAUAGUCUUGCGCUCAACCAGAAAGUCUGUAAUCAUUUUAAGGGUA [A54U A69G] : 0.53

Per the records, this variant ( GUUAACGGUCAUAGGCCAUGGAAACUAGGAGCACCAUUUCGCUGCCAGUGAAGAAAUGAACAAAGAAAAUCUGGGCCAGGCAGGCAUCAAAAGAAAUAGUCUUGCGCUCAACCGGAAAGUCUGGAAUCAUUUUAAGGGUA [A114G U124G] ) has self-cleavage equal to 0.21

response.value for GUUAACGGUCAUAGGCCAUGGAAACUAGGAGCACCAUUUCGCUGCCAGUGAAGAAAUGAACAAAGAAAAUCUGGGCCAGGCAGGCACCAAAAGAAAUAGUCUUGCGCUCAACCAGAAAGUCUGUAAUCGUUUUAAGGGUA [U87C A129G] (field: self-cleavage) = 1.14

response.value for GUUAACGGUCAUAGGCCAUGGAAACUAGGAGCACCAUUUCGCUGCCAGUGAAGAUAUGAACAAAGAAAAUCUGGGCCAGGCAGGCAUCAAAAGAAAUAGUCUUGCGCUCAACCAGAAAGCCUGUAAUCAUUUUAAGGGUA [A55U U120C] (field: self-cleavage) = 0.86

Given item GUUAACGGUCAUAGGCCAUGGAAACUAGGAGCACCAUUUCGCUGCCAGUGAAGAAAUGAACAAAGAAAAUCUGGGCUAGGCAGGCAUCAAAAGAAAUAGUCUUGCGCUCAACCAGAAAGUCUGUAUUCAUUUUAAGGGUA [C77U A126U] , the value recorded as its self-cleavage is 1.88

Field self-cleavage (entry GUUAACGGUCAUAGGCCAUGGAAACUAUGAGCACCAUUUCGCUGCCAGUGAAGAAAUGAACAAAGAAAAUCUGGGCCAGGCAGGCAUCAAAAGAAAUAGUCUUGCGCUCAACCAGAAAGUCUGUAAUCAUUUUCAGGGUA [G28U A134C] ) reads 2.09

Lookup result for GUUAACGGUCAUAGGCCAUGGAAACUAGGAGCACCAUUUCGCUGCCAGAGAAGAAAUGAACAAAGAAAAUCUGGGCCAGGCAGGCAUCAAAAGAAAUAGUCUUGCGCUCAACCAGAAAGUCUGUAAUCAUUUUAGGGGUA [U49A A135G] ; measured self-cleavage: 1.08

According to the records, this variant GUUAACGGUCAUAGGCCAUGGAGACUAGGAGCACCAUUUCGCUGCCAGUGAAGAAAUGAACAAAGAAAAUCUGGGCCAGGCAGGCAUCAAAAGAAACAGUCUUGCGCUCAACCAGAAAGUCUGUAAUCAUUUUAAGGGUA [A23G U97C] displays self-cleavage of 0.8
